conditions: 298.15 K; 101 kPa; Liquid; Linear variable-path acoustic interferometer
For each of the molecules below, state its speed of sound.
Numbers only, in m/s.

In the examples that follow, each entry is paired with its recorded speed of sound.
{"Molecule": "CN(C)C=O [dimethylformamide]", "Numeric readout": 1460.2}
{"Molecule": "CCCO [propan-1-ol]", "Numeric readout": 1207}
{"Molecule": "CC#N [acetonitrile]", "Numeric readout": 1281.3}
{"Molecule": "C1CCOC1 [tetrahydrofuran]", "Numeric readout": 1280.2}
{"Molecule": "C1COCCO1 [1,4-dioxane]", "Numeric readout": 1346.3}
{"Molecule": "CCCCO [butan-1-ol]", "Numeric readout": 1241.6}

Each molecule below has a recorded value; state its speed of sound.
1. CCO [ethanol]
2. CO [methanol]

1: 1142.1; 2: 1103.8
